Source: ChEMBL document CHEMBL3351346

experiment: Stability in pH 6.5 simulated gastrointestinal fluid assessed as compound remaining at 50 uM after 3 hrs by LC-MS/MS method; assay type: ADME; conditions: read-out: Stability
QUANTITY NAME: remaining at 3 h, 50 µM

Known remaining at 3 h, 50 µM results, listed for orientation:
- LINE NOTATION: "C[C@@H](O)[C@H]1C(=O)N2C(C(=O)OCOC(=O)OC(C)(C)C)=C(S[C@@H]3CN[C@H](C(=O)Nc4cccc(C(=O)OCOC(=O)OC(C)(C)C)c4)C3)[C@H](C)[C@H]12"
  remaining at 3 h, 50 µM: "> 95%"
- LINE NOTATION: "C[C@@H](O)[C@H]1C(=O)N2C3=C(S[C@@H]4CN[C@@H](C4)C(=O)Nc4cccc(c4)C(=O)OCOCOC3=O)[C@H](C)[C@H]12"
  remaining at 3 h, 50 µM: "> 95%"

Moving on to the next compound.
Give the measured remaining at 3 h, 50 µM of CCOC(=O)C1=C(S[C@@H]2CN[C@H](C(=O)Nc3cccc(C(=O)OCC)c3)C2)[C@H](C)[C@@H]2[C@@H]([C@@H](C)OC(=O)CC)C(=O)N12 .
> 95%

* * *

test system: Rattus norvegicus; assay: AUC (0 to 8 hrs) in fasted Sprague-Dawley rat assessed as ertapenem level at 10 mg/kg dosed through intraduodenal route by LC-MS/MS method; assay type: ADME, organism-based, Plasma; set-up: time < 8 hr, dose 10 mg/kg, route intraduodenal; conditions: in vivo, other
QUANTITY NAME: AUC (µM·h)

Study these solved cases before continuing.
- LINE NOTATION: "C[C@@H](O)[C@H]1C(=O)N2C(C(=O)OCC(F)(F)F)=C(S[C@@H]3CN[C@H](C(=O)Nc4cccc(C(=O)OCC(F)(F)F)c4)C3)[C@H](C)[C@H]12"
  AUC (µM·h): 1.7
- LINE NOTATION: "C[C@@H](O)[C@H]1C(=O)N2C(C(=O)[O-])=C(S[C@@H]3CN[C@H](C(=O)Nc4cccc(C(=O)O)c4)C3)[C@H](C)[C@H]12.O.[Na+]"
  AUC (µM·h): 0.5
- LINE NOTATION: "C[C@@H](O)[C@H]1C(=O)N2C(C(=O)OCc3oc(=O)oc3C(C)(C)C)=C(S[C@@H]3CN[C@H](C(=O)Nc4cccc(C(=O)OCc5oc(=O)oc5C(C)(C)C)c4)C3)[C@H](C)[C@H]12"
  AUC (µM·h): 0.2
- LINE NOTATION: "CC(C)C(=O)OCOC(=O)C1=C(S[C@@H]2CN[C@H](C(=O)Nc3cccc(C(=O)[O-])c3)C2)[C@H](C)[C@@H]2[C@@H]([C@@H](C)O)C(=O)N12.[Na+]"
  AUC (µM·h): 0.7

A = CC(C)c1oc(=O)oc1COC(=O)C1=C(S[C@@H]2CN[C@H](C(=O)Nc3cccc(C(=O)OCc4oc(=O)oc4C(C)C)c3)C2)[C@H](C)[C@@H]2[C@@H]([C@@H](C)O)C(=O)N12
B = CC(C)C(=O)OCOC(=O)C1=C(S[C@@H]2CN[C@H](C(=O)Nc3cccc(C(=O)OCOC(=O)C(C)C)c3)C2)[C@H](C)[C@@H]2[C@@H]([C@@H](C)O)C(=O)N12
Parameter metric = AUC. Return the lower-valued option from A and B . Indicate which entry you chose by stating its label.
A

* * *

system: Canis familiaris; test: Oral bioavailability in fasted Beagle dog assessed as assessed as ertapenem and monoetser metabolites level at 10 mg/kg dosed through intraduodenal route by LC-MS/MS method; type: ADME, organism-based, Canis lupus familiaris; details: in vivo
QUANTITY NAME: F (%)

- LINE NOTATION: "CCOC(=O)C1=C(S[C@H]2C[C@@H](C(=O)Nc3cccc(C(=O)OCC)c3)N(C(=O)OCc3oc(=O)oc3C)C2)[C@H](C)[C@@H]2[C@@H]([C@@H](C)O)C(=O)N12"
  F, %: 14.4

I = CCCOC(=O)C1=C(S[C@@H]2CN[C@H](C(=O)Nc3cccc(C(=O)OCCC)c3)C2)[C@H](C)[C@@H]2[C@@H]([C@@H](C)O)C(=O)N12
II = CCOC(=O)C1=C(S[C@@H]2CN[C@H](C(=O)Nc3cccc(C(=O)OCC)c3)C2)[C@H](C)[C@@H]2[C@@H]([C@@H](C)OC(=O)CC)C(=O)N12
Quick check, higher F between I and II ? Pick one and reply with its label.
II
(II: 20.2%, I: 11%)

a = C[C@@H](O)[C@H]1C(=O)N2C3=C(S[C@@H]4CN[C@@H](C4)C(=O)Nc4cccc(c4)C(=O)OCc4oc(=O)oc4COC3=O)[C@H](C)[C@H]12
b = CCOC(=O)C1=C(S[C@@H]2CN[C@H](C(=O)Nc3cccc(C(=O)OCC)c3)C2)[C@H](C)[C@@H]2[C@@H]([C@@H](C)OC(=O)[C@@H](N)C(C)C)C(=O)N12
Of a and b , which one carries the higher reported F? State the label of the item chosen.
b

* * *

test: AUC (0 to 8 hrs) in fasted Beagle dog at 10 mg/kg dosed through intraduodenal route by LC-MS/MS method; format: ADME, organism-based, Canis lupus familiaris, Plasma; parameters: time < 8 hr, dose 10 mg/kg, route intraduodenal; details: Beagle, plasma
QUANTITY NAME: AUC(0-t) at 8 h (nM·h)

I = CCCCOC(=O)C1=C(S[C@@H]2CN[C@H](C(=O)Nc3cccc(C(=O)OCCCC)c3)C2)[C@H](C)[C@@H]2[C@@H]([C@@H](C)O)C(=O)N12
II = CCCCCCCCOC(=O)C1=C(S[C@@H]2CN[C@H](C(=O)Nc3cccc(C(=O)OCCCCCCCC)c3)C2)[C@H](C)[C@@H]2[C@@H]([C@@H](C)O)C(=O)N12
III = CC(=O)O[C@H](C)[C@H]1C(=O)N2C3=C(S[C@@H]4CN[C@@H](C4)C(=O)Nc4cccc(c4)C(=O)OCOCOC3=O)[C@H](C)[C@H]12
Hey, quick one: sort these by AUC(0-t) at 8 h, largest value first please. Lab note: final answer is the ordered label list.
I, II, III

* * *

test: Stability in rat plasma assessed as compound remaining at 50 uM at 37 degC after 60 mins by LC-MS/MS method; type: ADME, cell-free; conditions: read-out: Stability
QUANTITY NAME: remaining at 1 h, 50 µM (%)

Worked examples follow.
- LINE NOTATION: "CCCCCCCCCCCCCCCCOC(=O)C1=C(S[C@@H]2CN[C@H](C(=O)Nc3cccc(C(=O)OCCCCCCCCCCCCCCCC)c3)C2)[C@H](C)[C@@H]2[C@@H]([C@@H](C)O)C(=O)N12"
  QUANTITY NAME: "remaining at 1 h, 50 µM"
  UNIT STRING: "%"
  NUMBER: 89
- LINE NOTATION: "CCC(CC)C(=O)OCOC(=O)C1=C(S[C@@H]2CN[C@H](C(=O)Nc3cccc(C(=O)OCOC(=O)C(CC)CC)c3)C2)[C@H](C)[C@@H]2[C@@H]([C@@H](C)O)C(=O)N12"
  QUANTITY NAME: "remaining at 1 h, 50 µM"
  UNIT STRING: "%"
  NUMBER: 3
- LINE NOTATION: "Cc1oc(=O)oc1COC(=O)c1cccc(NC(=O)[C@@H]2C[C@H](SC3=C(C(=O)O)N4C(=O)[C@H]([C@@H](C)O)[C@H]4[C@H]3C)CN2)c1"
  QUANTITY NAME: "remaining at 1 h, 50 µM"
  UNIT STRING: "%"
  NUMBER: 0

A = CC(C)c1oc(=O)oc1COC(=O)C1=C(S[C@@H]2CN[C@H](C(=O)Nc3cccc(C(=O)OCc4oc(=O)oc4C(C)C)c3)C2)[C@H](C)[C@@H]2[C@@H]([C@@H](C)O)C(=O)N12
B = Cc1oc(=O)oc1COC(=O)N1C[C@@H]2C[C@H]1C(=O)Nc1cccc(c1)C(=O)OC/C=C/COC(=O)C1=C(S2)[C@H](C)[C@@H]2[C@@H]([C@@H](C)O)C(=O)N12
Response body: label of entry with the larger remaining at 1 h, 50 µM; valid values A , B . In your reply, give the label of the chosen option.
A

* * *

test: Stability in human plasma assessed as compound remaining at 50 uM at 37 degC after 60 mins by LC-MS/MS method; format: ADME, cell-free; conditions: read-out: Stability
QUANTITY NAME: remaining at 1 h, 50 µM (%)

I = C[C@@H](O)[C@H]1C(=O)N2C(C(=O)O)=C(S[C@@H]3CN[C@H](C(=O)Nc4cccc(C(=O)OCOC(=O)C(C)(C)C)c4)C3)[C@H](C)[C@H]12
II = C[C@@H](O)[C@H]1C(=O)N2C3=C(S[C@@H]4CN[C@@H](C4)C(=O)Nc4cccc(c4)C(=O)OC/C=C\COC3=O)[C@H](C)[C@H]12
Which gives the smaller remaining at 1 h, 50 µM number: I or II ? In your reply, give the label of the chosen option.
II
(II: 21%, I: 53%)

A = CCOC(=O)C1=C(S[C@@H]2CN[C@H](C(=O)Nc3cccc(C(=O)OCC)c3)C2)[C@H](C)[C@@H]2[C@@H]([C@@H](C)OC(=O)[C@@H](N)C(C)C)C(=O)N12
B = C[C@@H](O)[C@H]1C(=O)N2C(C(=O)OCOC(=O)C3CCCCC3)=C(S[C@@H]3CN[C@H](C(=O)Nc4cccc(C(=O)OCOC(=O)C5CCCCC5)c4)C3)[C@H](C)[C@H]12
Between A and B , which one has the lower reported remaining at 1 h, 50 µM value? Could you answer with the label of the item you picked?
A
(A: 38%, B: 60%)
